Hey, just so you know, these numbers are from patent US20120045393A1.

Non-standard residues stand in square brackets, D forms with d. Residues, ends and D or L forms follow the SMILES beside them. *: point of attachment. DOTA = O=C(O)CN1CCN(CC(=O)O)CCN(CC(=O)*)CCN(CC(=O)O)CC1; Bpa = N[C@@H](Cc1ccc(C(=O)c2ccccc2)cc1)C(=O)O; Ala(4-thiazolyl) = N[C@@H](Cc1cscn1)C(=O)O; His(π-Me) = Cn1cncc1C[C@H](N)C(=O)O; azaGly = NNC(=O)O; Sar = CNCC(=O)O
Measurement kind: EC50 (µM)
Quick reminder: number only, in µM, skip the unit.

Query: Given the entry CN(CC(=O)N[C@@H](Cc1cncn1C)C(=O)N[C@@H](Cc1c[nH]c2ccccc12)C(=O)N[C@@H](CO)C(=O)N[C@@H](Cc1cscn1)C(=O)N[C@H](CCCNC(=N)N)C(=O)N[C@@H](Cc1c[nH]c2ccccc12)C(=O)N[C@@H](Cc1ccc(C(=O)c2ccccc2)cc1)C(=O)N1CCC[C@H]1C(=O)NNC(N)=O)C(=O)CN1CCN(CC(=O)O)CCN(CC(=O)O)CCN(CC(=O)O)CC1 [BRU-2739] ({DOTA}-[Sar][His(π-Me)]WS[Ala(4-thiazolyl)][dR]W[Bpa]P[azaGly]-NH2; C-terminus assumed) , what EC50 was observed with LHRH binding sites on human ovarian cancer cells (EFO-27)?
Reply: 5.28
